// provenance: patent US20180099931A1

target: F508delCFTR (Homo sapiens, UniProt P13569, DEL508-508); construct: expressed in transfected cells; host or cells: CFBE41o- human lung-derived epithelial cells (CFBE4lo-F508delCFTR-HRP), doxycycline-inducible; assay: Cell Surface Expression-Horse Radish Peroxidase (CSE-HRP) Assay; assay type: cell-based; settings: CSE-HRP; test compound without co-corrector; read-out: EC50 (without co-corrector)
Sequence (P13569 with tags, fused parts or gaps DEL508-508): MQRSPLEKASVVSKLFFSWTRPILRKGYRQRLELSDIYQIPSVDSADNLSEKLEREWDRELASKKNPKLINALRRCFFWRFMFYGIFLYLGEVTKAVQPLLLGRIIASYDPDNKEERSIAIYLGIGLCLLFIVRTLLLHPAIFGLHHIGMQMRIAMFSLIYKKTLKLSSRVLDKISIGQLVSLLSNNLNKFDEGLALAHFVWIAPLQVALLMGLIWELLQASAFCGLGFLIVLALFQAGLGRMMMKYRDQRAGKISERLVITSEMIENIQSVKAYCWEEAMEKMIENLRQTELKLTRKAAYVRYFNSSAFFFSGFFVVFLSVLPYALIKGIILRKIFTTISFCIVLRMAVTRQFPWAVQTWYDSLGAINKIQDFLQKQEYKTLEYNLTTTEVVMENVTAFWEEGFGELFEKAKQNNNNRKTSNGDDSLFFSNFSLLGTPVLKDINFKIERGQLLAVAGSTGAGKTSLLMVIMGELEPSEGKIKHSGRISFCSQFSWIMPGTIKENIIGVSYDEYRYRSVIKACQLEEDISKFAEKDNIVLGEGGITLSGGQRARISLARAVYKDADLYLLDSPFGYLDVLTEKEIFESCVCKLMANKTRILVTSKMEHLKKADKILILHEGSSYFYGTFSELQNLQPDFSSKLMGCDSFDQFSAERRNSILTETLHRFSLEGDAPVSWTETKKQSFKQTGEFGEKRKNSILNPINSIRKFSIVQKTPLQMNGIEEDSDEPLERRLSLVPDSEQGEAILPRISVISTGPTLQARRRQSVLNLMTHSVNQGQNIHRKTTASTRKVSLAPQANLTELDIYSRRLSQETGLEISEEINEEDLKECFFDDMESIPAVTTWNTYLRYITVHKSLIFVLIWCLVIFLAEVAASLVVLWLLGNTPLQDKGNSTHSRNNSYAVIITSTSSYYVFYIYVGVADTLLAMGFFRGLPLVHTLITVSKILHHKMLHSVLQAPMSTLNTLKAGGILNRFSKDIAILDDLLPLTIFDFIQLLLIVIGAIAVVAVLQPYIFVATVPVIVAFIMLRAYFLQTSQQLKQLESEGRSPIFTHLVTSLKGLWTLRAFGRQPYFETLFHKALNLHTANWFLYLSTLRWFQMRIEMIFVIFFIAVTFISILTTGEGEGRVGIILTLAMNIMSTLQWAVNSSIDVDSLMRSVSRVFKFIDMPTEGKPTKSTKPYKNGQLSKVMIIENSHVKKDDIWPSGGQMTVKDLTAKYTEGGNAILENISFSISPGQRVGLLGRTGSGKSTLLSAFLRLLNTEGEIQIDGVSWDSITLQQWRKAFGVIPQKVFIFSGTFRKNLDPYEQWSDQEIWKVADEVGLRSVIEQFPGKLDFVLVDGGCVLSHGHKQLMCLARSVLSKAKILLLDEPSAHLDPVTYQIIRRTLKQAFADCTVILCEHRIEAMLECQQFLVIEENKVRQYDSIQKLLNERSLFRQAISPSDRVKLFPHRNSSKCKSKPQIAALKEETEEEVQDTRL
Result type: EC50

# example entries with known answers
{"columns": ["Compound", "Result type", "Endpoint result"],
 "data": [
  ["CC(C)(C)[C@@H]1[C@@H](NCc2cc(Cl)ccc2OC(F)(F)F)[C@@H](c2ccccc2)N(C(=O)C2CCCCC2)[C@H]1C(=O)O (racemic)", "EC50", "< 1000 nM"],
  ["COc1cc(C(F)(F)F)ccc1CN[C@H]1[C@H](C(C)(C)OC)[C@@H](C(=O)O)N(C(=O)C2CCCCC2)[C@H]1c1ccccc1", "EC50", "1000 to 10000 nM"]
]}

// each compound listed below needs its EC50
1. COc1ncc(C(F)(F)F)cc1CN[C@H]1[C@H](C(C)(C)C)[C@@H](C(=O)O)N(C(=O)C2CCC2)[C@H]1c1ccccc1C(F)(F)F
2. CC(C)c1ccccc1[C@H]1[C@@H](NCc2cccc3c2OC(C)(C)C3)[C@H](C(C)(C)C)[C@@H](C(=O)O)N1C(=O)[C@@H]1CCCCO1
3. COc1ccc(-c2cncc(F)c2)cc1CN[C@H]1[C@H](C(C)(C)C)[C@@H](C(=O)O)N(C(=O)C2CCCCC2)[C@H]1c1ccccc1
4. COc1ccc(C(C)(C)C)cc1CN[C@H]1[C@H](C(C)(C)C)[C@@H](C(=O)O)N(C(=O)Cc2cccc(C#N)c2)[C@H]1c1ccccc1

["1000 to 10000 nM", "< 1000 nM", "1000 to 10000 nM", "1000 to 10000 nM"]

---

Molecular target: F508delCFTR (Homo sapiens, UniProt P13569, DEL508-508)
Construct: expressed in transfected cells; host or cells: CFBE41o- human lung-derived epithelial cells (CFBE4lo-F508delCFTR-HRP), doxycycline-inducible
Assay: Cell Surface Expression-Horse Radish Peroxidase (CSE-HRP) Assay
Assay type: cell-based
Details: with co-corrector (2 μM); maximum at any tested concentration, normalized to on-plate positive control
Procedure: Cell Surface Expression-Horse Radish Peroxidase (CSE-HRP) Assay The development was achieved by expressing the F508delCFTR mutation along with a horseradish peroxidase (HRP) in the fourth exofacial loop, and then measuring the HRP activity using luminescence readout from these cells, CFBE4lo-F508delCFTR-HRP, that were incubated overnight with the test corrector compounds, either without or with the co-corrector. […] The raw counts from the experiment were analyzed using Accelrys® Assay Explorer v3.3. […]
Result type: Maximum % activity (with co-corrector)

# example entries with known answers
{"columns": ["Line notation", "Maximum % activity (with co-corrector)"],
 "data": [
  ["CC(C)(C)[C@H]1[C@H](NCC2(c3cccc(Cl)c3)CCOCC2)[C@H](c2ccccc2)N(C(=O)C2CCCCC2)[C@@H]1C(=O)O", "+++ (≥350)"],
  ["COc1nc(C(C)(C)C)ccc1CN[C@H]1[C@H](C(C)(C)C)[C@@H](C(=O)O)N(C(=O)[C@@H]2CCCCO2)[C@H]1c1ccccc1", "+++ (≥350)"],
  ["CC(C)(C)[C@H]1[C@H](NCc2ccc(C(F)(F)F)cc2)[C@H](c2ccccc2)N(C(=O)C2CCCCC2)[C@@H]1C(=O)O", "++ (≥150 and <350)"],
  ["COc1ccc(C(C)(C)C)cc1CN[C@H]1[C@H](C(C)(C)C)[C@@H](C(=O)O)N(C(=O)c2cc3occc3n2C)[C@H]1c1ccccc1", "+++ (≥350)"]
]}

We next turn to a different molecule, shown below.
Could you share what Maximum % activity (with co-corrector) was measured for "COc1ccc(C(F)(F)F)cc1CN[C@@H]1[C@@H](C(C)(C)C)[C@H](C(=O)O)N(C(=O)[C@](OC)(c2ccccc2)C(F)(F)F)[C@@H]1c1ccccc1" , tested on F508delCFTR (Homo sapiens, UniProt P13569, DEL508-508)? ++ (≥150 and <350)
